test system: NCI-H226 lung; assay: NCI tumour cell line growth inhibition, 48 h
Items are presented alongside their recorded TGI.
The reply should contain only the number, in µM.

Solved entries:
# input Can you share its TGI? I mean this compound: `c1ccc([P+](c2ccccc2)(c2ccccc2)C2c3ccccc3-c3ccccc32)cc1`
# output 5.94

# input Please answer likewise for `COc1cccc(-c2c(-c3ccccc3)[nH]c(C)c2C(=O)ONC(=O)c2ccccc2)c1`
# output 30.7

Please look at the following compound next.
# input Can you share its TGI? I mean this compound: Cc1ccc(N2C(N)=C(C#N)C(C#N)(C#N)C2c2ccccc2)cc1 (stereo unspecified)
# output 38.9

---

tested on: RXF 393 renal; experiment: NCI tumour cell line growth inhibition, 48 h; in the data active = GI50 below about 0.43 µM; inactive = the rest
// one of active, inactive, no free text

Observe how each entry below is paired with its result.
# input Recorded test call requested for `CN(C)CCNC(=O)NC[C@H]1CC[C@@H]2[C@H](O1)c1cc(C(F)(F)F)ccc1N[C@H]2c1ccccc1`
# output active

# input Please answer likewise for `COc1ccc(N(C)c2nc(Cl)nc3cnn(C)c23)cc1`
# output active

# input Please answer likewise for `COc1cc2c(cc1C)NC(=O)/C2=C\c1c[nH]c2ccccc12`
# output inactive

# input Please answer likewise for `Nc1c(F)cc(-c2nc3cc(F)ccc3[se]2)cc1Br`
# output inactive

# input Please answer likewise for `O=c1c([OH2+])c(-c2ccc(O)cc2[O-])oc2cc(O)cc([O-])c12.O=c1c([OH2+])c(-c2ccc(O)cc2[O-])oc2cc(O)cc([O-])c12.[Ti+4]`
# output inactive

# input Please answer likewise for `COC1=CC(=O)c2nc(Cl)ccc2C1=O`
# output inactive

# input Please answer likewise for N#CC1C(=O)NC(c2ccccc2[N+](=O)[O-])c2sc3c(F)cccc3c21 (stereo not given)
# output inactive

# input Please answer likewise for `C[C@@H](Oc1cc(-n2cnc3ccc(OC[C@@H](O)CO)cc32)sc1C(N)=O)c1ccccc1Cl`
# output active

# input Please answer likewise for `COc1cnc2c(c1)C(=O)c1c-2n(CCCN2CCNCC2)c(=O)c2cc([N+](=O)[O-])ccc12`
# output active

# input Please answer likewise for `CCn1ccc(NS(=O)(=O)c2ccc(N)cc2)nc1=O`
# output inactive

New cases:
# input Recorded test call requested for `C=CCc1c(O)c(C(=O)/C=C/c2ccccc2)c(OC)c2ccoc12`
# output inactive

# input Please answer likewise for `O=[N+]([O-])c1ccc(Sc2ccncn2)c([N+](=O)[O-])c1`
# output inactive

# input Please answer likewise for `C/C(=N/N=C(N)N)c1ccc(NC(=O)Nc2ccc(/C(C)=N/N=C(N)N)cc2)cc1`
# output inactive

# input Please answer likewise for `C=C1C(=O)O[C@H]2[C@H]1CC/C(COC(=O)NCCCCCCCCNC(=O)OC/C1=C/CC[C@@]3(C)O[C@H]3[C@H]3OC(=O)C(=C)[C@@H]3CC1)=C\CC[C@@]1(C)O[C@@H]21`
# output active

# input Please answer likewise for `C1C[OH+]CC[OH+]CCNCC[OH+]CC[OH+]CCN1.Cl.[Cl-].[Pt+4]`
# output inactive

---

Items are presented alongside their recorded TGI.
tested on: M14 melanoma; assay: NCI tumour cell line growth inhibition, 48 h

Solved entries:
# input Any idea what TGI came out for COc1cc(/C=C2/C(=O)N(C(=O)OCc3ccccc3)C(Cc3cc(OC)c(OC)c(C)c3OC)C(=O)N2Cc2ccccc2)c(OC)c(C)c1OC (stereo not given) on M14 melanoma?
# output > 100 µM

# input Please answer likewise for `CCCN1CCC(c2ccc(Nc3nc(Nc4cc(F)ccc4C(N)=O)c4cc[nH]c4n3)c(OC)c2)CC1`
# output 5.48 µM

# input Please answer likewise for `CCn1ccc(NS(=O)(=O)c2ccc(N)cc2)nc1=O`
# output > 100 µM

# input Please answer likewise for `CCOC(=O)C(=O)Nc1ccccc1C(C)C`
# output > 100 µM

Please look at the following compound next.
# input Any idea what TGI came out for CCOC(=O)C(OP(=O)(OCC)OCC)C(F)(F)F (stereo not given) on M14 melanoma?
# output > 100 µM

---

test system: U251 CNS
// one of active, inactive, no free text

# input Recorded test call requested for `Cc1cc(=O)oc2cc(OC/C=C3\CCC(=O)O3)ccc12`
# output inactive

# input Please answer likewise for `C=C1C(=O)O[C@H]2[C@H]1CC/C(COC(=O)NCCCCCCCCNC(=O)OC/C1=C/CC[C@@]3(C)O[C@H]3[C@H]3OC(=O)C(=C)[C@@H]3CC1)=C\CC[C@@]1(C)O[C@@H]21`
# output inactive

# input Please answer likewise for `CN(C)CCNC(=O)NC[C@H]1CC[C@@H]2[C@H](O1)c1cc(C(F)(F)F)ccc1N[C@H]2c1ccccc1`
# output active

Now, please, on to the next compound.
# input Recorded test call requested for `C[CH2][Sn]([CH2]C)([O]C(=O)c1ccc(OC)c(OC)c1OC)[O]C(=O)c1ccc(OC)c(OC)c1OC`
# output inactive

---

test system: SR leukemia; assay: NCI tumour cell line growth inhibition, 48 h
METRIC: TGI

# input Can you share its TGI? I mean this compound: Cc1ccccc1C1CC(c2ccccc2)=NO1 (stereo unspecified)
# output > 100 µM

# input Please answer likewise for CCN1CCC(O)(c2ccc(O)cc2)C(C(=O)c2ccc(O)cc2)C1 (stereo unspecified)
# output 43.4 µM

# input Please answer likewise for `CCCN(CCC)C1=Nc2ccccc2-n2cnnc2C1`
# output > 100 µM

# input Please answer likewise for `O=c1oc2ccc([N+](=O)[O-])cc2cc1Br`
# output > 100 µM

# input Please answer likewise for `CC1CC[P+](c2ccccc2)(c2ccccc2)CC1`
# output > 100 µM

New cases:
# input Can you share its TGI? I mean this compound: CC1C2CC=CC(=O)[C@@]2(C)CCC12OCCO2 (stereo partly specified)
# output > 100 µM

# input Please answer likewise for `COc1cccc(-c2c(-c3ccccc3)[nH]c(C)c2C(=O)ONC(=O)c2ccccc2)c1`
# output 15.5 µM

# input Please answer likewise for O=C(O)CCC(C(=O)O)N1C(=O)C2C3CCC(C3)C2C1=O (stereo unspecified)
# output > 100 µM

# input Please answer likewise for `COc1ccc2c(c1)C(=O)c1c-2c(Nc2cccc(C(C)=O)c2)nc2ccccc12`
# output > 100 µM

# input Please answer likewise for `COc1cc2ccc1OCc1cccc(n1)COc1ccc(cc1OC)C=NCCNCCN=C2`
# output > 100 µM

# input Please answer likewise for `COc1cc2c[n+](C)c3c(c2cc1OC)Cc1cc2c(cc1-3)OCO2`
# output > 100 µM

---

system: HOP-18 NSCLC; experiment: NCI tumour cell line growth inhibition, 48 h
Items are presented alongside their recorded TGI.

Solved entries:
# input Can you share its TGI? I mean this molecule: CC(=O)O[C@H]1CC2C=CC3C(CCC31)O2 (some centres undefined)
# output > 100 µM

# input Please answer likewise for `CCOC(=O)C(=O)Nc1ccccc1C(C)C`
# output > 100 µM

# input Please answer likewise for `O=c1c([OH2+])c(-c2ccc(O)cc2[O-])oc2cc(O)cc([O-])c12.O=c1c([OH2+])c(-c2ccc(O)cc2[O-])oc2cc(O)cc([O-])c12.[Ti+4]`
# output > 100 µM

# input Please answer likewise for `C=C(CCCO)[C@@H]1CC[C@@](C)(O)[C@H]1C`
# output > 100 µM

# input Please answer likewise for COc1cc(/C=C2/C(=O)N(C(=O)OCc3ccccc3)C(Cc3cc(OC)c(OC)c(C)c3OC)C(=O)N2Cc2ccccc2)c(OC)c(C)c1OC (centres undefined)
# output > 100 µM

New cases:
# input Can you share its TGI? I mean this molecule: `Nc1ccc(Sc2c3ccccc3nc3ccccc23)cc1`
# output 41.7 µM

# input Please answer likewise for CCOP1(=O)C=C(C)C(=C(Cl)Cl)C(C)=C1 (centres undefined)
# output 46.9 µM

# input Please answer likewise for `CC1CC[P+](c2ccccc2)(c2ccccc2)CC1`
# output > 100 µM

# input Please answer likewise for `C=CCCCCCCCCC(=O)O`
# output 226 µM

# input Please answer likewise for `COc1c2c(cc3c1C(=O)Cc1ccc4c(c1CN(C)CC3)OCO4)OCO2`
# output > 100 µM

# input Please answer likewise for COc1cccc(NC(=O)C(=O)C2C=CCS2(=O)=O)c1 (centres undefined)
# output > 100 µM

# input Please answer likewise for `COc1ccc2nc(NC(=O)C(=O)NNC(=O)c3ccncc3)sc2c1`
# output > 100 µM

# input Please answer likewise for `CCOCc1cc(=O)c2c(OC)cc3c(c2o1)CCC(C)(C)O3`
# output > 100 µM

---

Items are presented alongside their recorded TGI.
test system: M14 melanoma; assay: NCI tumour cell line growth inhibition, 48 h

# input Can you share its TGI? I mean this molecule: `O=C1C=CC2(C=C1)C[C@H](NC(=O)OCc1ccccc1)C(=O)O2`
# output 32.6 µM

# input Please answer likewise for CC(O)[C@@]1(c2ccccc2)CC2(CCN(C)CC2)O[C@H]1C (some centres undefined)
# output > 100 µM

# input Please answer likewise for `COc1cccc(/C=C\c2ccc(O)cc2)c1`
# output 63.5 µM

# input Please answer likewise for `CN(C)CCNC(=O)NC[C@H]1CC[C@@H]2[C@H](O1)c1cc(C(F)(F)F)ccc1N[C@H]2c1ccccc1`
# output 0.684 µM

# input Please answer likewise for `COC(=O)[C@]12CC[C@@H](C)[C@H](C)[C@@H]1C1=CC[C@@H]3[C@@]4(C)C(C=O)=C[C@@](C)(COC(=O)/C=C/c5ccccc5)[C@@H]4[C@H](O)C[C@@]3(C)[C@]1(C)CC2`
# output 17.3 µM

# input Please answer likewise for C=CCN(N=O)C(=O)NCCCCC(NC(C)=O)C(=O)NCc1ccccc1 (centres undefined)
# output > 100 µM

# input Please answer likewise for `Nc1nc(=S)n(-c2ccc(Cl)cc2)c2nc3ccccc3cc12`
# output > 100 µM

# input Please answer likewise for C/C(Cc1ccc2c(c1)OCO2)=N\NC(=O)C(C)Sc1nnc(SC(C)C(=O)N/N=C(\C)Cc2ccc3c(c2)OCO3)s1 (centres undefined)
# output > 100 µM

# input Please answer likewise for `Cn1c2ccccc2c2c(=O)n(CCCC(=O)OC(=NC3CCCCC3)NC3CCCCC3)c3c(-c4ccccc4)nnn3c21`
# output > 100 µM

# input Please answer likewise for CCN1CCC(O)(c2ccc(O)cc2)C(C(=O)c2ccc(O)cc2)C1 (centres undefined)
# output 36.4 µM

# input Please answer likewise for `CCOCc1cc(=O)c2c(OC)cc3c(c2o1)CCC(C)(C)O3`
# output > 100 µM

# input Please answer likewise for `COc1cc(/C=C2\C[C@H]3[C@@H]4CC=C5C[C@@H](OC(C)=O)CC[C@]5(C)[C@H]4CC[C@]3(C)[C@H]2OC(C)=O)ccc1OCCN1CCCC1`
# output 30.4 µM

# input Please answer likewise for COC1C(O)C(C)OC(OC2CCC3(C)C(CCC4C3C(O)CC3(C)C(C5=CC(=O)OC5)CCC43O)C2)C1O (centres undefined)
# output 1.02 µM

# input Please answer likewise for `CC1=NN(c2nc(N)nc(/C(C#N)=C\c3cccc([N+](=O)[O-])c3)n2)C(C)(C)C1`
# output > 48.9 µM

# input Please answer likewise for `CCCN(CCC)C1=Nc2ccccc2-n2cnnc2C1`
# output > 100 µM

# input Please answer likewise for `CN(C)CCOC(=O)Nc1nc2ccc(Sc3ccccc3)cc2[nH]1`
# output 9.29 µM

# input Please answer likewise for `N#Cc1c(O)c2ccccc2[nH]c1=O`
# output > 100 µM

# input Please answer likewise for `O=C1c2ccccc2C(=O)N1CC(CN1C(=O)c2ccccc2C1=O)(C(=O)OCc1ccccc1)C(=O)OCc1ccccc1`
# output > 100 µM
